- assayed system: Estrogen receptor (Homo sapiens) + Estrogen receptor beta (Homo sapiens) (UniProt P03372+Q92731)
- Sequence (P03372 whole entry, looked up): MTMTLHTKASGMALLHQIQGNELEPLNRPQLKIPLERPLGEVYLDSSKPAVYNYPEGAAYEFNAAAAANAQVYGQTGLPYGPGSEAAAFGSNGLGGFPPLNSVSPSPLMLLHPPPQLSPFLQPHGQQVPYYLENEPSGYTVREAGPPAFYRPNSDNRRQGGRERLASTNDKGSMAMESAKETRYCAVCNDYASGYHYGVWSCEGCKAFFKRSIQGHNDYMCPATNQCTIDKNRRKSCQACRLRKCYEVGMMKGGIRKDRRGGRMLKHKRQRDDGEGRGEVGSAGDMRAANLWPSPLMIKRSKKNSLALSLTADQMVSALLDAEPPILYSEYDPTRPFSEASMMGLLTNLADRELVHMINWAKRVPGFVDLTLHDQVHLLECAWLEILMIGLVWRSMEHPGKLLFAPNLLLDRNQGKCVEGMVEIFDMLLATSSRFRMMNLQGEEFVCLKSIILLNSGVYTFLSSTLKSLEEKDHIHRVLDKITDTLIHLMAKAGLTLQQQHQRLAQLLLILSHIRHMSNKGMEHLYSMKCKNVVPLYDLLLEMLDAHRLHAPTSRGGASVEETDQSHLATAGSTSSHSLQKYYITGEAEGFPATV
- Sequence (Q92731 whole entry, looked up): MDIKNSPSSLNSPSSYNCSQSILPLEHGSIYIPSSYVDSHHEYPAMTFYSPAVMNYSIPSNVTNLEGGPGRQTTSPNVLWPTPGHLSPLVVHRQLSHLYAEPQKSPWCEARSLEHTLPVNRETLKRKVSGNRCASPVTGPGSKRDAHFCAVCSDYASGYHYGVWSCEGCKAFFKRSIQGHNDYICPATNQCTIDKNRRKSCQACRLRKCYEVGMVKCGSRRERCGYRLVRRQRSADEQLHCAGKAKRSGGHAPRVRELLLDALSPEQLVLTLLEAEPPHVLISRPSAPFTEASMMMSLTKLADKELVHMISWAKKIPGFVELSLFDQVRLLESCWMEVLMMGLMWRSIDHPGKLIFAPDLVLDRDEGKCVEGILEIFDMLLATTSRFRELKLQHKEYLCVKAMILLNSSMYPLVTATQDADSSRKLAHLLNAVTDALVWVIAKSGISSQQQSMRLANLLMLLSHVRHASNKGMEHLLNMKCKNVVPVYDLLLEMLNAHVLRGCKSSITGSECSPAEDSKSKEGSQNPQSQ
- measurement protocol: OT_ER_ERaERb_0480: Odyssey Thera (OT) 8-hour HEK293T Protein-Complementation Assay for Estrogen Receptor-alpha/-beta Heterodimer (AID 2283352)
Results filed as inconclusive are left out. Calls of active or inactive are those of the source. How the source made its calls: active means hit-call score of the fitted dose curve at least 0.9, where 1 is the maximum; inconclusive means response in the unintended direction; inactive means score below 0.9.
Classes used: true (active), false (inactive)

compound: Nc1ccc(N=Nc2ccccc2)cc1
class assignment: true
--
compound: [O-][Cl+]O
class assignment: false
--
compound: CNC(=O)Oc1cccc2c1OC(C)(C)C2
class assignment: false
--
compound: ClC1=C(Cl)C2(Cl)C3C(Cl)C=CC3C1(Cl)C2(Cl)Cl (configuration not stated)
class assignment: false
--
compound: CCCCCOC(=O)c1ccccc1C(=O)OCCCCC
class assignment: true
--
compound: OCCOCCO
class assignment: false
--
compound: CCCCCCCCn1sccc1=O
class assignment: false
